Values were extracted from PubChem BioAssay AID2060606.

# Tested on: 922993-354-T-J3-PDC complex spheroids, viability, % test/control
# assay.method.text: Anticancer human tumor 922993-354-T-J3-PDC patient-derived endometrial carcinoma cell line growth inhibition [CLK]; active = viability on the fitted dose curve at most 10% of control; inactive = the rest
# condition.label: second compound 1 µM; first compound 0.316 µM
Choose the fitting class; nothing outside active, inactive is accepted.

Known results for compounds:
Nc1ccccc1NC(=O)c1ccc(CNC(=O)OCc2cccnc2)cc1 + CNC(=O)c1ccc(Nc2nc(OC3CCCC3)c3c(-c4ccc5nc(C)oc5c4)c[nH]c3n2)c(OC)c1 | inactive
COc1c(OCCCN2CCOCC2)ccc2c3n(c(=NC(=O)c4cnc(N)nc4)nc12)CCN3 + CN1CCN(c2cc(C(=O)Nc3cc4cc(-c5cnn(C)c5)ccc4cn3)ccn2)CC1 | active

Each compound tested received a call. Report the one for CC(Nc1ccc2c(c1)OCCn1cc(N3C(=O)OCC3C(F)F)nc1-2)C(N)=O (stereo unspecified) + CNC(=O)c1ccc(Nc2nc(OC3CCCC3)c3c(-c4ccc5nc(C)oc5c4)c[nH]c3n2)c(OC)c1 .
inactive

Each compound tested received a call. Report the one for COc1ccc([C@@H](O)c2cc(-c3ncnc4cc(N5CCOCC5)ccc34)c(F)cc2Cl)nn1 + CN1CCN(c2cc(C(=O)Nc3cc4cc(-c5cnn(C)c5)ccc4cn3)ccn2)CC1 .
active

Each compound tested received a call. Report the one for COC1C=CCC(C)C(C)S(=O)(=O)NC(=O)c2ccc3c(c2)N(CC2CCC21)CC1(CCCc2cc(Cl)ccc21)CO3 (stereo unspecified) + CN1CCN(c2cc(C(=O)Nc3cc4cc(-c5cnn(C)c5)ccc4cn3)ccn2)CC1 .
active

Each compound tested received a call. Report the one for CCN1CCN(Cc2ccc(Nc3ncc(F)c(-c4cc(F)c5nc(C)n(C(C)C)c5c4)n3)nc2)CC1 + CNC(=O)c1ccc(Nc2nc(OC3CCCC3)c3c(-c4ccc5nc(C)oc5c4)c[nH]c3n2)c(OC)c1 .
inactive

Each compound tested received a call. Report the one for C=CC(=O)N1CCN(c2nc(=O)n(-c3c(C)ccnc3C(C)C)c3nc(-c4c(O)cccc4F)c(F)cc23)C(C)C1 (stereo unspecified) + CN1CCN(c2cc(C(=O)Nc3cc4cc(-c5cnn(C)c5)ccc4cn3)ccn2)CC1 .
active

Each compound tested received a call. Report the one for COc1c(OCCCN2CCOCC2)ccc2c3n(c(=NC(=O)c4cnc(N)nc4)nc12)CCN3 + CNC(=O)c1ccc(Nc2nc(OC3CCCC3)c3c(-c4ccc5nc(C)oc5c4)c[nH]c3n2)c(OC)c1 .
inactive

Each compound tested received a call. Report the one for CC(=O)O[C@H]1C(=O)[C@@]2(C)[C@H]([C@H](OC(=O)c3ccccc3)[C@]3(O)C[C@H](OC(=O)[C@H](O)[C@@H](NC(=O)c4ccccc4)c4ccccc4)C(C)=C1C3(C)C)[C@]1(OC(C)=O)CO[C@@H]1C[C@@H]2O + CN1CCN(c2cc(C(=O)Nc3cc4cc(-c5cnn(C)c5)ccc4cn3)ccn2)CC1 .
active

Each compound tested received a call. Report the one for CCCS(=O)(=O)Nc1ccc(F)c(C(=O)c2c[nH]c3ncc(-c4ccc(Cl)cc4)cc23)c1F + CN1CCN(c2cc(C(=O)Nc3cc4cc(-c5cnn(C)c5)ccc4cn3)ccn2)CC1 .
active

----------
Could you please report measured viability, T/C for the items listed next?
# Test system: 922993-354-T-J3-PDC complex spheroids, viability, % test/control
# assay.method.text: Anticancer human tumor 922993-354-T-J3-PDC cell line growth inhibition [CLK];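 note: spheroids exposed to the agents for 7 days before readout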
# condition.label: second compound 3.16 µM; first compound 0.1 µM; active compounds read low
Numbers only, in %.

Answered cases to consult:
COc1ccc([C@@H](O)c2cc(-c3ncnc4cc(N5CCOCC5)ccc34)c(F)cc2Cl)nn1 + CN1CCN(c2cc(C(=O)Nc3cc4cc(-c5cnn(C)c5)ccc4cn3)ccn2)CC1 | 0.14
CC1COCCN1c1cc(C2(S(C)(=N)=O)CC2)nc(-c2ccnc3[nH]ccc23)n1 (stereo not given) + CNC(=O)c1ccc(Nc2nc(OC3CCCC3)c3c(-c4ccc5nc(C)oc5c4)c[nH]c3n2)c(OC)c1 | 32.8
COc1cccc2c1C(=O)c1c(O)c3c(c(O)c1C2=O)CC(O)(C(=O)CO)CC3OC1CC(N)C(O)C(C)O1 (stereo not given) + CNC(=O)c1ccc(Nc2nc(OC3CCCC3)c3c(-c4ccc5nc(C)oc5c4)c[nH]c3n2)c(OC)c1 | 21.1
CC(=O)O[C@H]1C(=O)[C@@]2(C)[C@H]([C@H](OC(=O)c3ccccc3)[C@]3(O)C[C@H](OC(=O)[C@H](O)[C@@H](NC(=O)c4ccccc4)c4ccccc4)C(C)=C1C3(C)C)[C@]1(OC(C)=O)CO[C@@H]1C[C@@H]2O + CNC(=O)c1ccc(Nc2nc(OC3CCCC3)c3c(-c4ccc5nc(C)oc5c4)c[nH]c3n2)c(OC)c1 | 41.4
CC(CO)NC(=O)c1cc(-c2ccc(Cl)cc2)nn(-c2cnn(C)c2)c1=O (stereo not given) + CNC(=O)c1ccc(Nc2nc(OC3CCCC3)c3c(-c4ccc5nc(C)oc5c4)c[nH]c3n2)c(OC)c1 | 31

Value sought for every listed compound: viability, T/C.
1. Cn1ncnc1[C@H]1c2n[nH]c(=O)c3cc(F)cc(c23)N[C@@H]1c1ccc(F)cc1 + CNC(=O)c1ccc(Nc2nc(OC3CCCC3)c3c(-c4ccc5nc(C)oc5c4)c[nH]c3n2)c(OC)c1
2. COc1c(OCCCN2CCOCC2)ccc2c3n(c(=NC(=O)c4cnc(N)nc4)nc12)CCN3 + CNC(=O)c1ccc(Nc2nc(OC3CCCC3)c3c(-c4ccc5nc(C)oc5c4)c[nH]c3n2)c(OC)c1
3. COc1cccc2c1C(=O)c1c(O)c3c(c(O)c1C2=O)CC(O)(C(=O)CO)CC3OC1CC(N)C(O)C(C)O1 (stereo not given) + CN1CCN(c2cc(C(=O)Nc3cc4cc(-c5cnn(C)c5)ccc4cn3)ccn2)CC1

1: 21; 2: 11.8; 3: 0.2

Value sought for every listed compound: viability, T/C.
1. O=c1[nH]cc(F)c(=O)[nH]1 + CNC(=O)c1ccc(Nc2nc(OC3CCCC3)c3c(-c4ccc5nc(C)oc5c4)c[nH]c3n2)c(OC)c1
2. Nc1ccccc1NC(=O)c1ccc(CNC(=O)OCc2cccnc2)cc1 + CNC(=O)c1ccc(Nc2nc(OC3CCCC3)c3c(-c4ccc5nc(C)oc5c4)c[nH]c3n2)c(OC)c1

[37.3, 30.7]

----------
# Tested on: 922993-354-T-J3-PDC complex spheroids, viability, % test/control
# assay.method.text: Anticancer human tumor 922993-354-T-J3-PDC cell line growth inhibition [CLK]; active = viability on the fitted dose curve at most 10% of control; inactive = the rest;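 note: spheroids exposed to the agents for 7 days before readout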
# condition.label: second compound 3.16 µM; first compound 0.1 µM
Choose the fitting class; nothing outside active, inactive is accepted.

C#Cc1c(F)ccc2cc(O)cc(-c3ncc4c(N5CC6CCC(C5)N6)nc(OCC56CCCN5CC(F)C6)nc4c3F)c12 (stereo not given) + CN1CCN(c2cc(C(=O)Nc3cc4cc(-c5cnn(C)c5)ccc4cn3)ccn2)CC1 | active
C=C(F)C(=O)N1CCN(c2nc(OCC3CCCN3C)nc3c2CCN(c2cccc4cccc(Cl)c24)C3)CC1CC#N (stereo not given) + CN1CCN(c2cc(C(=O)Nc3cc4cc(-c5cnn(C)c5)ccc4cn3)ccn2)CC1 | active
COC1C=CCC(C)C(C)S(=O)(=O)NC(=O)c2ccc3c(c2)N(CC2CCC21)CC1(CCCc2cc(Cl)ccc21)CO3 (stereo not given) + CN1CCN(c2cc(C(=O)Nc3cc4cc(-c5cnn(C)c5)ccc4cn3)ccn2)CC1 | active

Each compound tested received a call. Report the one for CC(CO)NC(=O)c1cc(-c2ccc(Cl)cc2)nn(-c2cnn(C)c2)c1=O (stereo not given) + CN1CCN(c2cc(C(=O)Nc3cc4cc(-c5cnn(C)c5)ccc4cn3)ccn2)CC1 .
active

Each compound tested received a call. Report the one for C=CC(=O)N1CCN(c2nc(=O)n(-c3c(C)ccnc3C(C)C)c3nc(-c4c(O)cccc4F)c(F)cc23)C(C)C1 (stereo not given) + CNC(=O)c1ccc(Nc2nc(OC3CCCC3)c3c(-c4ccc5nc(C)oc5c4)c[nH]c3n2)c(OC)c1 .
inactive

----------
Could you please report measured viability, T/C for the items listed next?
# System: 922993-354-T-J3-PDC complex spheroids, viability, % test/control
# assay.method.text: Anticancer human tumor 922993-354-T-J3-PDC cell line growth inhibition [CLK];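 note: spheroids exposed to the agents for 7 days before readout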
# condition.label: second compound 10 µM; first compound 0.000949 µM; active compounds read low
One number for each entry, in %.

C=CC(=O)Nc1cc(Nc2nccc(-c3cn(C)c4ccccc34)n2)c(OC)cc1N(C)CCN(C)C + CNC(=O)c1ccc(Nc2nc(OC3CCCC3)c3c(-c4ccc5nc(C)oc5c4)c[nH]c3n2)c(OC)c1 | 26.8
C=CC(=O)Nc1cc(Nc2nccc(-c3cn(C)c4ccccc34)n2)c(OC)cc1N(C)CCN(C)C + CN1CCN(c2cc(C(=O)Nc3cc4cc(-c5cnn(C)c5)ccc4cn3)ccn2)CC1 | 0.15
CC(C)CC(NC(=O)C(Cc1ccccc1)NC(=O)c1cnccn1)B(O)O (centres undefined) + CN1CCN(c2cc(C(=O)Nc3cc4cc(-c5cnn(C)c5)ccc4cn3)ccn2)CC1 | 0.08

Consider the additional compound presented here.
// query viability, T/C value for entry CC(C)CC(NC(=O)C(Cc1ccccc1)NC(=O)c1cnccn1)B(O)O (centres undefined) + CNC(=O)c1ccc(Nc2nc(OC3CCCC3)c3c(-c4ccc5nc(C)oc5c4)c[nH]c3n2)c(OC)c1
25
